The measured values listed here are drawn from patent US20240201167A1.

Tested System: T1, human B7-1 K139D on cells (Homo sapiens, UniProt P33681 35-280)
T1 construct: mCherry-tagged point mutant; also called LYS139ASP; LYS139 ASP
T1 chain: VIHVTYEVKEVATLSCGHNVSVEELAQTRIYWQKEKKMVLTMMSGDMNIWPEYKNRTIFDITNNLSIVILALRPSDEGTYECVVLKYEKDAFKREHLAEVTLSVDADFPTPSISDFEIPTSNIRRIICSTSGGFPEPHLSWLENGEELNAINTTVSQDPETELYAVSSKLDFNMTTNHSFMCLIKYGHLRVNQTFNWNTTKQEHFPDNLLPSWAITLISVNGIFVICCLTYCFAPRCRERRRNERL
Test Summary: cell-cell binding, flow cytometry; percent of the wild-type pair
Below: a set of entries, each annotated with reported percent binding.
Recorded Endpoint: percent binding (%)

{"Binder": "human p75NTR P150K on cells (receptor, Fluorescent-tagged point mutant) KEACPTGLYTHSGECCKACNLGEGVAQPCGANQTVCEPCLDSVTFSDVVSATEPCKPCTECVGLQSMSAPCVEADDAVCRCAYGYYQDETTGRCEACRVCEAGSGLVFSCQDKQNTVCEECKDGTYSDEANHVDPCLPCTVCEDTERQLRECTRWADAECEEIPGRWITRSTPPEGSDSTAPSTQEPEAPPEQDLIASTVAGVVTTVMGSSQPVVTRGTTDNLIPVYCSILAAVVVGLVAYIAFKRWNSCKQNKQGANSRPVNQTPPPEGEKLHSDSGISVDSQSLHDQQPHTQTASGQALKGDGGLYSSLPPAKREEVEKLLNGSAGDTWRHLAGELGYQPEHIDSFTHEACPVRALLASWATQDSATLDALLAALRRIQRADLVESLCSESTATSPV", "Units": "%", "Experimental Result": 11}
{"Binder": "human p75 neurotrophin receptor, full length, expressed on HEK 293 cells (receptor, Full-length human p75 with a cytosolic fluorescent tag (GFP); also called p75NTR; NGFR) KEACPTGLYTHSGECCKACNLGEGVAQPCGANQTVCEPCLDSVTFSDVVSATEPCKPCTECVGLQSMSAPCVEADDAVCRCAYGYYQDETTGRCEACRVCEAGSGLVFSCQDKQNTVCEECPDGTYSDEANHVDPCLPCTVCEDTERQLRECTRWADAECEEIPGRWITRSTPPEGSDSTAPSTQEPEAPPEQDLIASTVAGVVTTVMGSSQPVVTRGTTDNLIPVYCSILAAVVVGLVAYIAFKRWNSCKQNKQGANSRPVNQTPPPEGEKLHSDSGISVDSQSLHDQQPHTQTASGQALKGDGGLYSSLPPAKREEVEKLLNGSAGDTWRHLAGELGYQPEHIDSFTHEACPVRALLASWATQDSATLDALLAALRRIQRADLVESLCSESTATSPV", "Units": "%", "Experimental Result": 21}
